System: A549
TEST: relative viability (normalised to negative control = 1, bortezomib = 0) (fraction); higher = less cytotoxic
CONDITIONS: inflammatory serum-free RHB-A with cytokines + LPS; 5 d + 24 h CellTiter-Blue; compound 30 nM; GSK126 pretreatment: none (vehicle)
Consider the cut-off 0.8. If the recorded relative viability is strictly smaller, the label is rule met; if not, the label is rule not met.

[
  {
    "COMPOUND": "COc1cc2/c(=N/c3ccc(Br)cc3F)nc[nH]c2cc1OCC1CCN(C)CC1 [Vandetanib]",
    "CLASS ASSIGNMENT": "rule not met"
  },
  {
    "COMPOUND": "CS(=O)(=O)N1CCN(Cc2cc3nc(-c4cccc5[nH]ncc45)nc(N4CCOCC4)c3s2)CC1",
    "CLASS ASSIGNMENT": "rule met"
  }
]

Input COc1cc(Nc2ncc(F)c(Nc3ccc4c(n3)NC(=O)C(C)(C)O4)n2)cc(OC)c1OC [R406(free base); R406] ; condition: relative viability strictly below 0.8. Does it hold?
rule not met

====

// reported relative viability per item
System: A549
TEST: relative viability (normalised to negative control = 1, bortezomib = 0) (fraction); higher = less cytotoxic
CONDITIONS: inflammatory serum-free RHB-A with cytokines + LPS; 5 d + 24 h CellTiter-Blue; compound 30 nM; GSK126 pretreatment: none (vehicle)
Where a name gives a salt, the structure may show the parent alone.
Returns: the value as a bare number; no unit string appended.

Field: example entries. Status: answers known.
[
  {
    "MOLECULE": "Cn1cnc2c(F)c(Nc3ccc(Br)cc3Cl)c(C(=O)NOCCO)cc21 [AZD6244(Selumetinib)]",
    "relative viability": 0.592
  },
  {
    "MOLECULE": "C=CC(=O)Nc1cccc(Oc2nc(Nc3ccc(N4CCN(C)CC4)cc3)ncc2Cl)c1",
    "relative viability": 0.82
  }
]

Form: molecule = CC(=O)O[C@]1(C(C)=O)CC[C@H]2[C@@H]3C=C(C)C4=CC(=O)CC[C@]4(C)[C@H]3CC[C@@]21C [Megestrol acetate] ; relative viability = 1.21

For this molecule ( OCCn1cc(-c2ccc3c(c2)CC/C3=N\O)c(-c2ccncc2)n1 ), measured relative viability is 0.989

# relative viability of Cn1c(Nc2ccc(C(F)(F)F)cc2)nc2cc(Oc3ccnc(-c4ncc(C(F)(F)F)[nH]4)c3)ccc21 = 0.699

Please fill in: relative viability reported for N#Cc1ccc(C(c2ccc(C#N)cc2)n2cncn2)cc1 = 0.799

Per the record, COc1ccc(-c2ccc3c(N4CCOC[C@@H]4C)nc(N4CCOC[C@@H]4C)nc3n2)cc1CO has relative viability of 0.396

Please fill in: relative viability reported for O=C1c2c(O)ccc(O)c2C(=O)c2c(NCCNCCO)ccc(NCCNCCO)c21 [Mitoxantrone; Mitoxantrone dihydrochloride] = 0.376

According to the records, this molecule O=C(NOCC1CC1)c1ccc(F)c(F)c1Nc1ccc(I)cc1Cl displays relative viability of 0.55

====

System: A549
TEST: relative viability (normalised to negative control = 1, bortezomib = 0) (fraction); higher = less cytotoxic
CONDITIONS: inflammatory serum-free RHB-A with cytokines + LPS; 5 d + 24 h CellTiter-Blue; compound 300 nM; GSK126 pretreatment: none (vehicle)
Counter-ions that a name gives are not always drawn.
Mark each entry 1 (yes) if its relative viability sits below 0.9, and 0 (no) for all others.

[
  {
    "MOLECULE": "Nc1nc(Cl)nc2c1ncn2[C@H]1C[C@H](O)[C@@H](CO)O1",
    "CLASS ASSIGNMENT": "1 (yes)"
  },
  {
    "MOLECULE": "Cc1cc(C(C)Nc2ccccc2)c2nc(N3CCOCC3)cc(=O)n2c1 (stereo unspecified)",
    "CLASS ASSIGNMENT": "1 (yes)"
  }
]

For this molecule, is relative viability lower than 0.9? Cn1cc(-c2ccc3nnc(C(F)(F)c4ccc5ncccc5c4)n3n2)cn1
0 (no)

Item Cc1ccc(NC(=O)c2ccc(CN3CCN(C)CC3)cc2)cc1Nc1nccc(-c2cccnc2)n1 : relative viability beneath 0.9, strictly?
0 (no)

API: query returns whether the molecule falls strictly under 0.9 in relative viability. Query: O=C(Nc1cccc(Cl)c1)Nc1ncc(CCNc2ncnc3ccsc23)s1 [SNS-314 Mesylate]
1 (yes)

For this molecule, is relative viability lower than 0.9? O=C(NC1CCNCC1)c1n[nH]cc1NC(=O)c1c(Cl)cccc1Cl
1 (yes)

Problem: For the molecule CN(C)Cc1cccc(N=C(c2ccccc2)c2c(O)[nH]c3cc(C(N)=O)ccc23)c1 , is relative viability under 0.9?
0 (no)

Take the molecule CCN(CC)CCNC(=O)c1c(C)[nH]c(/C=C2\C(=O)Nc3ccc(F)cc32)c1C [Sunitinib; Sunitinib Malate; Sunitinib (free base)] and say whether its relative viability is less than 0.9.
0 (no)

Would you kindly verify if relative viability of Cc1cnc(-c2cnc(NCCNc3ccc(C#N)cn3)nc2-c2ccc(Cl)cc2Cl)[nH]1 is strictly less than 0.9?
1 (yes)

Does the reported relative viability of the following molecule sit strictly below 0.9? COc1cc(Nc2ncc(F)c(Nc3ccc4c(n3)N(COP(=O)(O)O)C(=O)C(C)(C)O4)n2)cc(OC)c1OC
0 (no)

Strictly below 0.9: is that where relative viability of CO[C@H](C(=O)[C@@H](O)[C@@H](C)O)[C@@H]1Cc2cc3cc(O[C@H]4C[C@@H](O[C@H]5C[C@@H](O)[C@H](O)[C@@H](C)O5)[C@H](O)[C@@H](C)O4)c(C)c(O)c3c(O)c2C(=O)[C@H]1O[C@H]1C[C@@H](O[C@H]2C[C@@H](O[C@H]3C[C@](C)(O)[C@H](O)[C@@H](C)O3)[C@@H](O)[C@@H](C)O2)[C@H](O)[C@@H](C)O1 sits?
1 (yes)

Would you kindly verify if relative viability of O=C1C(c2c(O)[nH]c3ccccc23)=Nc2ccccc21 is strictly less than 0.9?
1 (yes)

Regarding C#Cc1cccc(Nc2ncnc3cc(OCCOC)c(OCCO)cc23)c1 , kindly confirm whether its relative viability is beneath 0.9.
1 (yes)

====

Test system: A549
TEST: relative viability (normalised to negative control = 1, bortezomib = 0) (fraction); higher = less cytotoxic
CONDITIONS: inflammatory serum-free RHB-A with cytokines + LPS; 5 d + 24 h CellTiter-Blue; compound 30 nM; GSK126 pretreatment: none (vehicle)
Structures can show the parent of a compound that is named as a salt.
Items are presented alongside their recorded relative viability.
# respond with the number and nothing more

[
  {
    "COMPOUND": "Cc1cc(Nc2cc(CN3CCOCC3)c3nc(C)c(Cc4ccc(Cl)cc4F)n3n2)n[nH]1",
    "relative viability": 0.988
  },
  {
    "COMPOUND": "CNNCc1ccc(C(=O)NC(C)C)cc1 [Procarbazine hydrochloride; Procarbazine]",
    "relative viability": 0.915
  }
]

Entry C[S+]([O-])c1ccc(-c2nc(-c3ccc(F)cc3)c(-c3ccncc3)[nH]2)cc1 (configuration not stated) , tested on A549, has a reported relative viability of 0.902

Entry CCS(=O)(=O)c1cccc(-c2cc(C(=O)NC3CCN(C)CC3)c(C)c3[nH]c4ncc(C)cc4c23)c1 , tested on A549, has a reported relative viability of 0.72

Response field relative viability (A549) for item N#CC1(c2ccc(NC(=O)c3cccnc3NCc3ccncc3)cc2)CCCC1 : 0.853

Hey, A549 data for Cc1[nH]c(/C=C2\C(=O)Nc3ccc(S(=O)(=O)N(C)c4cccc(Cl)c4)cc32)c(C)c1C(=O)N1CCN(C)CC1 : relative viability came out at 0.887

The reported relative viability value, A549, for CC(C)n1nc(-c2cc3cc(O)ccc3[nH]2)c2c(N)ncnc21 reads 0.751

The value of relative viability recorded for CC(C)Cn1cnc2c(N)nc3ccccc3c21 when tested on A549 reads 0.794

Here Cc1nc(Nc2ncc(C(=O)Nc3c(C)cccc3Cl)s2)cc(N2CCN(CCO)CC2)n1 was tested on A549, and its relative viability came to 0.882

Kindly note: A549, CNC(=O)c1cc(Oc2ccc(NC(=O)Nc3ccc(Cl)c(C(F)(F)F)c3)cc2)ccn1 [Sorafenib tosylate; Sorafenib; Sorafenib Tosylate] , relative viability value reported: 1.04

Param item: C[C@@H](Oc1cc(-n2cnc3ccc(CN4CCN(C)CC4)cc32)sc1C(N)=O)c1ccccc1C(F)(F)F ; param system: A549; output relative viability: 0.326

Summary: COc1cc2nccc(Oc3ccc(NC(=O)C4(C(=O)Nc5ccc(F)cc5)CC4)cc3)c2cc1OC [XL184; Cabozantinib] , A549, relative viability = 0.875

Item CN(C)/N=N/c1[nH]cnc1C(N)=O ; assay system A549; relative viability reported as 0.992

Let me check: CN(c1ncccc1CNc1nc(Nc2ccc3c(c2)CC(=O)N3)ncc1C(F)(F)F)S(C)(=O)=O , system A549, measured relative viability is 0.907

Cc1cnc(-c2cnc(NCCNc3ccc(C#N)cn3)nc2-c2ccc(Cl)cc2Cl)[nH]1 tested on A549 gave relative viability: 0.834

// returns relative viability for COc1ccc(-c2ccc3c(N4CCOCC4)nc(N4C[C@@H](C)O[C@@H](C)C4)nc3n2)cc1CO with A549; value = 0.745

Given the compound O=C(NC1CCNCC1)c1n[nH]cc1NC(=O)c1c(Cl)cccc1Cl and test system A549, the measured relative viability is 0.924
